- experimental target: 3-oxo-5-alpha-steroid 4-dehydrogenase 1 (Homo sapiens)
- Sequence (P18405 whole entry, looked up): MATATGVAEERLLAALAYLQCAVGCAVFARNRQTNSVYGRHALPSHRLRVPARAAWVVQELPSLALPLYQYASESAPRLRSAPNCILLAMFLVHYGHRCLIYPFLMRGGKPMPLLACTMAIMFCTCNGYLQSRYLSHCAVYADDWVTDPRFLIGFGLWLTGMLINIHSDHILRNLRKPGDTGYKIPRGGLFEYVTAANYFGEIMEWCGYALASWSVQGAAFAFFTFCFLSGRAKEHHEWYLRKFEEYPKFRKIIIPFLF
- test description: Inhibitory activity against human 5-alpha Reductase-1 expressed in DU-145 cells
- Assay type: cell-based
measure name: IC50 (nM)
Express the result in nM but write the number alone.

Ask: GET /values?readout=IC50&item= CC(C)(C)NC(=O)[C@H]1CC[C@H]2[C@@H]3CC[C@H]4NC(=O)C=C[C@]4(C)[C@H]3CC[C@]12C [FINASTERIDE]
Reply: 42

* * *

- experimental target: 3-oxo-5-alpha-steroid 4-dehydrogenase 2 (Homo sapiens, UniProt P31213)
- test description: Tested against 5 alpha R-2 on human prostate homogenate from surgically derived benign hyperplastic tissue in experiment 2
- Format: tissue-based, Prostate gland
measure name: IC50 (nM)
Numeric answer only, unit nM assumed.

Ask: Form field: reported IC50 of CC(C)(C)NC(=O)[C@H]1CC[C@H]2C3=C(CC[C@]12C)N1CCC(=O)C=C1CC3.CC(C)(C)NC(=O)[C@H]1CC[C@H]2C3CCC4=CC(=O)CCN4C3=CC[C@]12C (stereo partly specified)
Reply: 7.3

* * *

- experimental target: 3-oxo-5-alpha-steroid 4-dehydrogenase 2 (Homo sapiens)
- Sequence (P31213 whole entry): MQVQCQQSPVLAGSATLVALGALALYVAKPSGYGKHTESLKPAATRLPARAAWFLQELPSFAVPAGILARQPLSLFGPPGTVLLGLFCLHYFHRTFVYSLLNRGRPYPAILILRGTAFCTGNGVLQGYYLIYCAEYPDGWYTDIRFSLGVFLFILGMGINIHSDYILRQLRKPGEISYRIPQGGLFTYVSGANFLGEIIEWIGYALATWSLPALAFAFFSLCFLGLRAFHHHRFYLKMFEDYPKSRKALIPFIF
- test description: Inhibition against 5 alpha R-2 in human prostate homogenate compared with finasteride in experiment 3
- Assay type: tissue-based, Prostate gland
measure name: IC50 (nM)
Reply with just the number (in nM).

Ask: Request the reported IC50 associated with CC(C)(C)NC(=O)[C@H]1CC[C@H]2C3=C(CC[C@]12C)N1CCC(=O)C=C1CC3.CC(C)(C)NC(=O)[C@H]1CC[C@H]2C3CCC4=CC(=O)CCN4C3=CC[C@]12C (stereo partly specified)
Reply: 4.3
